- assayed.target: Putative nitroreductase (Staphylococcus saprophyticus subsp. saprophyticus (strain ATCC 15305 / DSM20229 / NCIMB 8711 / NCTC 7292 / S-41))
- Sequence (Q4A0P1 whole entry): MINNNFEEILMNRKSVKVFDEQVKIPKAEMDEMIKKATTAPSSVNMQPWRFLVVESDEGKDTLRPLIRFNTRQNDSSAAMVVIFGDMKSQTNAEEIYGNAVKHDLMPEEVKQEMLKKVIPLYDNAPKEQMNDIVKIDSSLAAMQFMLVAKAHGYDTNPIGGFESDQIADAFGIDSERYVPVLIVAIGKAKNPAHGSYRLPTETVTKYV
- assay.protocol: Substrate activity at Staphylococcus saprophyticus nitroreductase NtrB assessed as Km using NADPH as cofactor in Tris-Cl buffer at pH 7.5 incubated for 30 mins by HPLC analysis
- Format: ADME
- conditions: pH 7.5, 0.5 h
value.kind: Km (mM)
The figure you give is taken to be in mM; do not add the unit.

[in] Look up Km for this compound: NC(=O)c1cc(N2CC2)c([N+](=O)[O-])cc1[N+](=O)[O-] [TRETAZICAR]
[out] 1.07
